biological target: Muscarinic acetylcholine receptor M1 (Homo sapiens) (UniProt P11229); experiment: Positive allosteric modulation of human mAChR1 expressed in CHONFAT cells assessed as potention of acetylcholine-induced effect incubated for 4 mins prior to acetylcholine addition measured after 4 mins by FLIPR assay; assay type: cell-based
Sequence (P11229 whole entry): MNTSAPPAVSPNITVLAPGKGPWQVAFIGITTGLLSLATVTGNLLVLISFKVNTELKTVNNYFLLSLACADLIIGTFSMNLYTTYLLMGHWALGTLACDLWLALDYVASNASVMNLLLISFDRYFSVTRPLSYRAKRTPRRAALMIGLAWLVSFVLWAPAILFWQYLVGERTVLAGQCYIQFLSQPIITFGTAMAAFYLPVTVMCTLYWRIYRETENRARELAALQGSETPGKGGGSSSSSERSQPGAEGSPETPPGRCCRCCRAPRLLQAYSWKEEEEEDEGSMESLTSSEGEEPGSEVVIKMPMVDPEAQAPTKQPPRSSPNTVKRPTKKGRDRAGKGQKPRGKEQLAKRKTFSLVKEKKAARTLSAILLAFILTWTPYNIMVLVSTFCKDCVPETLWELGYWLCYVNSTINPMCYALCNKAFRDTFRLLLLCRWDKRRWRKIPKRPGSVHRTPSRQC
READOUT_TYPE: IP

>>> print(df.to_string())
                                   compound  observed_measurement
0  Cc1ccnc(C2(C#N)CCN(Cc3cc4c(c5ccccc35)CN([C@H]3CCCC[C@@H]3O)C4=O)CC2)c1                 16 nM
1  CC1c2c(cc(CN3CCC(C#N)(c4ccccn4)CC3)c3ccccc23)C(=O)N1[C@H]1CCCC[C@@H]1O (mixture of isomers)                 19 nM
2  N#CC1(c2ccccn2)CCN(Cc2cc3c(c4ccccc24)CN([C@H]2CCCC[C@@H]2O)C3=O)CC1                 15 nM
3  N#CC1(c2ccncn2)CCN(Cc2cc3c(c4ccccc24)CN([C@H]2CCCC[C@@H]2O)C3=O)CC1                 17 nM

---

assay: Clearance in dog at 0.125 mg/kg, iv; format: ADME, organism-based, Canis lupus familiaris; set-up: dose 0.125 mg/kg, route intravenous; settings: in vivo
READOUT_TYPE: clearance (mL/min/kg)

>>> df
                           substance_smiles  observed_measurement
0  N#CC1(c2ccccn2)CCN(Cc2cc3c(c4ccccc24)CN([C@H]2CCCC[C@@H]2O)C3=O)CC1                   2.1

---

test: Solubility of the compound at pH 2; format: physicochemical; conditions: buffer
READOUT_TYPE: solubility (µM)

>>> df
                                   compound  units_text  observed_measurement
0  CC1c2c(cc(CN3CCC(C#N)(c4ccccn4)CC3)c3ccccc23)C(=O)N1[C@H]1CCCC[C@@H]1O (mixture of isomers)          µM                   198
1  Cc1ccnc(C2(C#N)CCN(Cc3cc4c(c5ccccc35)CN([C@H]3CCCC[C@@H]3O)C4=O)CC2)c1          µM                   179
2  N#CC1(c2ccccn2)CCN(Cc2cc3c(c4ccccc24)CN([C@H]2CCCC[C@@H]2O)C3=O)CC1          µM                   195

---

biological target: MDR1 (ABCB1, P-glycoprotein) (Homo sapiens); assay: Effect on human MDR1-mediated drug transport assessed as efflux ratio of permeability from basolateral to apical side over apical to basolateral side; type: ADME; conditions: not told
Sequence (P08183 whole entry): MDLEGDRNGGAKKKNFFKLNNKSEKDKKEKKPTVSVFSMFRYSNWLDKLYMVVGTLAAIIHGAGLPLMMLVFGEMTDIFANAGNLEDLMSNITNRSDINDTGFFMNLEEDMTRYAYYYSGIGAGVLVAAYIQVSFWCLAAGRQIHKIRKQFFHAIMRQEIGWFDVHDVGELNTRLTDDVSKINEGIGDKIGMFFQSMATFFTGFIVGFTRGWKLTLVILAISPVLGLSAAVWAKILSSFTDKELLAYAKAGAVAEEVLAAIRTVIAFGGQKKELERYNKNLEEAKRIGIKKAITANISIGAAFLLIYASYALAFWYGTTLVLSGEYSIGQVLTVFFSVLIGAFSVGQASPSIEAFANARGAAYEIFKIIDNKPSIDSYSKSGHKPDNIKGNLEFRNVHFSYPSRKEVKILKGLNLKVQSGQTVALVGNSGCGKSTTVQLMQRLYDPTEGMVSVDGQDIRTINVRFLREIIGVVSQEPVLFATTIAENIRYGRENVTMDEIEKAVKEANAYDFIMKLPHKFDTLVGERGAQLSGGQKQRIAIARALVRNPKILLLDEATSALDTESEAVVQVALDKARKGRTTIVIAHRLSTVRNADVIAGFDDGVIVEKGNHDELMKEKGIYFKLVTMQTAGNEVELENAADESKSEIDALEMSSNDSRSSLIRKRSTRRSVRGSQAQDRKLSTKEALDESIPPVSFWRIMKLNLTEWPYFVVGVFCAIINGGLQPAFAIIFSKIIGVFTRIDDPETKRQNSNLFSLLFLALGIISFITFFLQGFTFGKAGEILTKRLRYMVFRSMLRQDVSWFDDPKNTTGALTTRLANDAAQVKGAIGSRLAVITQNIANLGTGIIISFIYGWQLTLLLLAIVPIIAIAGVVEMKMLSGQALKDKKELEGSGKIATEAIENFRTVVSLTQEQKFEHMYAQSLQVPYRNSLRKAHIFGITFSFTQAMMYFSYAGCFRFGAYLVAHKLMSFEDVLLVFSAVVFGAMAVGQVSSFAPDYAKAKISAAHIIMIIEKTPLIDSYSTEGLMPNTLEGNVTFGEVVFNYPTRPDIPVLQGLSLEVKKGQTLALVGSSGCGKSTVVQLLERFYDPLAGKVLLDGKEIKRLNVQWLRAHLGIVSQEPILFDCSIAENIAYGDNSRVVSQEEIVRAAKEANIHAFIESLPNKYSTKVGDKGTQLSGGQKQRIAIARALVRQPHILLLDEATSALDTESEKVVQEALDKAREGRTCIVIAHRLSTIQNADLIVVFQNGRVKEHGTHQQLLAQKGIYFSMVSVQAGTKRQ
Binary call on efflux ratio: T from 2 upward, F beneath that.

                                   molecule                             target_system  discrete_label
0  N#CC1(c2ccncn2)CCN(Cc2cc3c(c4ccccc24)CN([C@H]2CCCC[C@@H]2O)C3=O)CC1  MDR1 (ABCB1, P-glycoprotein) (Homo sapiens)               T
1  CC1c2c(cc(CN3CCC(C#N)(c4ccccn4)CC3)c3ccccc23)C(=O)N1[C@H]1CCCC[C@@H]1O (mixture of isomers)  MDR1 (ABCB1, P-glycoprotein) (Homo sapiens)               F
2  N#CC1(c2ccncc2)CCN(Cc2cc3c(c4ccccc24)CN([C@H]2CCCC[C@@H]2O)C3=O)CC1  MDR1 (ABCB1, P-glycoprotein) (Homo sapiens)               T
3  N#CC1(c2cnccn2)CCN(Cc2cc3c(c4ccccc24)CN([C@H]2CCCC[C@@H]2O)C3=O)CC1  MDR1 (ABCB1, P-glycoprotein) (Homo sapiens)               T
4  N#CC1(c2ccccn2)CCN(Cc2cc3c(c4ccccc24)CN([C@H]2CCCC[C@@H]2O)C3=O)CC1  MDR1 (ABCB1, P-glycoprotein) (Homo sapiens)               T
5  Cc1ccnc(C2(C#N)CCN(Cc3cc4c(c5ccccc35)CN([C@H]3CCCC[C@@H]3O)C4=O)CC2)c1  MDR1 (ABCB1, P-glycoprotein) (Homo sapiens)               F
6  O=C1c2cc(CN3CCC(F)(c4ccccn4)CC3)c3ccccc3c2CN1[C@H]1CCCC[C@@H]1O  MDR1 (ABCB1, P-glycoprotein) (Homo sapiens)               T
7  N#CC1(c2ccccc2)CCN(Cc2cc3c(c4ccccc24)CN([C@H]2CCCC[C@@H]2O)C3=O)CC1  MDR1 (ABCB1, P-glycoprotein) (Homo sapiens)               F
8  Cc1cccc(C2(C#N)CCN(Cc3cc4c(c5ccccc35)CN([C@H]3CCCC[C@@H]3O)C4=O)CC2)n1  MDR1 (ABCB1, P-glycoprotein) (Homo sapiens)               F
